# EXPERIMENTAL TARGET: T1, CXCL11 (Homo sapiens, UniProt O14625)
# T1 chain: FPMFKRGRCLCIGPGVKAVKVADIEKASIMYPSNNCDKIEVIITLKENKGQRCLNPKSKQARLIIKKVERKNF
# ASSAY NOTES: homologous competition binding with 125I-CXCL11 on L1.2 transfectants
READOUT TYPE: pKd
Keep in mind that pKd stands for -log10 of concentration in molar terms.

Data request: Returns the measured pKd for the input binder. Input: CXCR3 (protein) MVLEVSDHQVLNDAEVAALLENFSSSYDYGENESDSCCTSPPCPQDFSLNFDRAFLPALASLLFLLGLLGNGAVAAVLLSRRTALSSTDTFLLHLAVADTLLVLTLPLWAVDAAVQWVFGSGLCKVAGALFNINFYAGALLLACISFDRYLNIVHATQLYRRGPPARVTLTCLAVWGLCLLFALPDFIFLSAHHDERLNATHCQYNFPQVGRTALRVLQLVAGFLLPLLVMAYCYAHILAVLLVSRGQRRLRAMRLVVVVVVAFALCWTPYHLVVLVDILMDLGALARNCGRESRVDVAKSVTSGLGYMHCCLNPLLYAFVGVKFRERMWMLLLRLGCPNQRGLQRQPSSSRRDSSWSETSEASYSGL
Data returned: 8.74
